# Test system: Streptococcus sp. 'group B'
# experimental.protocol: Antimicrobial activity against group B Streptococcus sp. 'group B' serotype IA isolate 6649-05 by broth dilution method
# Assay type: functional
metric.name: MIC (µg/mL)
Only the number, expressed in µg/mL, is required.

// known answers, use as guide
CO[C@@]1(NC(=O)Cc2cccs2)C(=O)N2C(C(=O)O)=C(COC(N)=O)CS[C@@H]21 [CEFOXITIN]: 4
CC1(C)S[C@@H]2[C@H](NC(=O)Cc3ccccc3)C(=O)N2[C@H]1C(=O)O [PENICILLIN G]: 0.12

Given the entry Cc1nnc(SCC2=C(C(=O)O)N3C(=O)[C@@H](NC(=O)Cn4cnnn4)[C@H]3SC2)s1 [CEFAZOLIN] , report its measured MIC.
0.5

Try this compound too: CC1(C)S[C@@H]2[C@H](NC(=O)[C@H](N)c3ccccc3)C(=O)N2[C@H]1C(=O)O [AMPICILLIN]
0.25

What about CO/N=C(\C(=O)N[C@@H]1C(=O)N2C(C(=O)O)=C(COC(C)=O)CS[C@H]12)c1csc(N)n1 [CEFOTAXIME] ?
0.12
